experimental.target: D(4) dopamine receptor (Homo sapiens) (UniProt P21917)
assay.protocol: Agonist activity at D4R (unknown origin) expressed in human HEK293T cells assessed as beta arrestin-2 recruitment measured after 2.5 mins by BRET assay relative to control
Format: functional, cell-based
Would you mind telling me the reported Emax of each entry?
Kindly answer with a numeric value in %, unit omitted.

Please report the recorded Emax for O=C1CCc2ccccc2N1CCCN1CCN(c2ccc(Cl)cc2)CC1 .
-43.4

Requested field: Emax. Item: COc1ccc(N2CCN(CCCN3C(=O)CCc4ccccc43)CC2)cc1
0

I have this compound here, O=C1CCc2ccccc2N1CCCN1CCN(c2ccccn2)CC1 , and I need its recorded Emax.
0

Form field: reported Emax of Cc1ccc(N2CCN(CCCN3C(=O)CCc4ccccc43)CC2)cc1
-30.2

* * *

Please go through the items and note down their pEC50.
experimental.target: D(4) dopamine receptor (Homo sapiens)
assay.protocol: Agonist activity at D4R (unknown origin) expressed in human HEK293T cells assessed as beta arrestin-2 recruitment measured after 2.5 mins by BRET assay
Assay type: functional, cell-based
When answering, recall that pEC50 equals minus log10 of the concentration in mol/L, and write that number alone.

What reported pEC50 corresponds to Cc1ccc(N2CCN(CCCN3C(=O)CCc4ccccc43)CC2)cc1 on D(4) dopamine receptor (Homo sapiens)?
7.79

I'm curious: which pEC50 was measured for O=C1CCc2ccccc2N1CCCN1CCN(c2ccc(Cl)cc2)CC1 tested on D(4) dopamine receptor (Homo sapiens)?
7.29

* * *

experimental.target: D(4) dopamine receptor (Homo sapiens)
Sequence (P21917 whole entry): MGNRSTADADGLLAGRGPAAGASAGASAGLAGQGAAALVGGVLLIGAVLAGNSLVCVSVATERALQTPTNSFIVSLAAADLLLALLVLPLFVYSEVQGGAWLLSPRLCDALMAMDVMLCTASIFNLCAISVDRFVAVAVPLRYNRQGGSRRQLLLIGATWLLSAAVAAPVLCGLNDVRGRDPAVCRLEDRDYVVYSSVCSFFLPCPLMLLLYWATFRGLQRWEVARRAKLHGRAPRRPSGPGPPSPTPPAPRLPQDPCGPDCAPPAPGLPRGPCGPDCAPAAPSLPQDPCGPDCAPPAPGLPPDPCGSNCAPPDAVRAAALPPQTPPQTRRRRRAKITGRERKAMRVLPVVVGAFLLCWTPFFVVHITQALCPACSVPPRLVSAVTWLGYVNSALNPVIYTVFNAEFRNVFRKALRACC
assay.protocol: Partial agonist activity at D4R (unknown origin) expressed in human HEK293T cells assessed as G0 protein activation measured after 2.5 mins by BRET assay
Assay type: functional, cell-based
recorded.endpoint: EC50 (nM)
Please state the figure in nM; there is no need to write the unit.

Find the recorded EC50 belonging to O=C1CCc2ccccc2N1CCCN1CCN(c2ccccn2)CC1 and report it.
8.51

* * *

experimental.target: UniProt:P21917
assay.protocol: Antagonist activity at D4R (unknown origin) expressed in human HEK293T cells assessed as inhibition of dopamine-induced G0 protein activation pretreated for 10 mins followed by dopamine addition and measured after 2.5 mins by BRET assay
Assay type: functional, cell-based
Would you mind telling me the reported IC50 of each entry?
Answer with a number only, understood to be in nM.

May I ask what IC50 has been recorded for Cc1ccc(N2CCN(CCCN3C(=O)CCc4ccccc43)CC2)cc1 ?
331

I am curious: what IC50 value has been reported for O=C1CCc2ccccc2N1CCCN1CCN(c2ccc(Cl)cc2)CC1 ?
380

Which measured IC50 value corresponds to COc1ccc(N2CCN(CCCN3C(=O)CCc4ccccc43)CC2)cc1 ?
107

Ref: ChEMBL document CHEMBL5104176
